Collected glycan array binding signal (z-score) values appear next to each entry.
- tgt: Man(a1-2)Man(a1-6)[Man(a1-3)]Man(a1-6)[Man(a1-2)Man(a1-2)Man(a1-3)]Man
- measurement description: glycan array binding signal (z-score within array); higher = stronger binding
- condition summary: glycan notation: IUPAC condensed, linker removed
The sample as a whole holds a higher share of the strongest signals than the screen did.

binder	glycan array binding signal (z-score)
BC2LB (Burholderia cenocepacia), B4EH85_BURCJ (protein) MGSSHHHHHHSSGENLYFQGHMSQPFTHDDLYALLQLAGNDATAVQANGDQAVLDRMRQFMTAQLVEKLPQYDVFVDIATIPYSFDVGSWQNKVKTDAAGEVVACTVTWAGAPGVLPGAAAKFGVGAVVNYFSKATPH	-0.2
SSR1 (Sclerotium rolfsii), A0A0M3KL30 (protein) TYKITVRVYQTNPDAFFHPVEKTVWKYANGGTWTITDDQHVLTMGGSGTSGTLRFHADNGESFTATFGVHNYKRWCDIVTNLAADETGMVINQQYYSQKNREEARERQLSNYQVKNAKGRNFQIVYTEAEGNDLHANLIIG	-0.348
PEB1 (Campylobacter jejuni), Q0P9X8 (protein) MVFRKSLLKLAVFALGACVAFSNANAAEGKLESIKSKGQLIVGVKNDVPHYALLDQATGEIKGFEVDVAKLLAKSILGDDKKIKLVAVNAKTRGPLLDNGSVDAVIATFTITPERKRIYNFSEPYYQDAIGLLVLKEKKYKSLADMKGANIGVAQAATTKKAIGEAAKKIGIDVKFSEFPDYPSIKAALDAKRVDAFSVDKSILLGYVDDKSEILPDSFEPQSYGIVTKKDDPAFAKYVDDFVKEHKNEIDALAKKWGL	-0.547
PGP3 (Chlamydia trachomatis), P0CE18 (protein) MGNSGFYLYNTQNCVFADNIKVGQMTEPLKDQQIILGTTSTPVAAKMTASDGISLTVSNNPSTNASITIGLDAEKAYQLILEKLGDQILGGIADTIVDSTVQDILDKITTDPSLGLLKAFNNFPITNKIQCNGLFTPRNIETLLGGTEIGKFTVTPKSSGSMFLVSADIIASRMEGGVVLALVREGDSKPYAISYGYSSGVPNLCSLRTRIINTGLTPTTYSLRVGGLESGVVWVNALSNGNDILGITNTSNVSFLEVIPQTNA	0.585
AFL6 (Aspergillus fumigatus), Q4WKJ1 (protein) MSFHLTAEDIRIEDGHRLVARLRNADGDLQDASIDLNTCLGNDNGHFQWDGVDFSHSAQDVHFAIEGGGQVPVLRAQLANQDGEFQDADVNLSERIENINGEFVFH	-0.466
FliC (Clostridium difficile) (protein) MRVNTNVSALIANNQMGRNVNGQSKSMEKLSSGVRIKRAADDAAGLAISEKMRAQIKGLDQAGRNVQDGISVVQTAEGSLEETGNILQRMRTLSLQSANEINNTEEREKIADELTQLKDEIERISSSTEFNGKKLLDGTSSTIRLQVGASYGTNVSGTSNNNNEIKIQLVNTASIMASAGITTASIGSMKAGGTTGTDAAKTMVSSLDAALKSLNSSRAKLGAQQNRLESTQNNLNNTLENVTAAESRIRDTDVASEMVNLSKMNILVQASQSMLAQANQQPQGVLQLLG	0.153

FYI, the data here is from the supplement of paper PMC8728848.
